experiment: Pharmacokinetic profile: cannabinoids in rat serum by LC-MS/MS, non-compartmental analysis; conditions: rats given doses of 5, 50, 300 and 600 mg/kg, LC-MS
METRIC: amount identified and quantitated in serum samples

Please review the entries below; each comes with its answer.
compound=CCCCCc1cc(O)c(C/C=C(\C)CCC=C(C)C)c(O)c1C(=O)O result="high amounts"
compound=C=C(C)[C@@H]1CCC(C)=C[C@H]1c1c(O)cc(CCCCC)c(C(=O)O)c1O result="low amounts"
compound="CCCCCc1cc2c(c(O)c1C(=O)O)C1C=C(C)CCC1C(C)(C)O2 (centres unmarked) [Δ9-THCA-A, Δ9-tetrahydrocannabinolic acid]" result="high amounts"
compound="CCCCCc1cc2c(c(O)c1C(=O)O)C=CC(C)(CCC=C(C)C)O2 (centres unmarked)" result="low amounts"

Q: Look at this compound and give its reported amount identified and quantitated in serum samples. CCCCCc1cc(O)c2c(c1)OC(C)(C)[C@@H]1CCC(C)=C[C@@H]21 [Δ9-THC, Δ9-tetrahydrocannabinol]
Ans: low amounts
